# Tested on: CCRIS mutagenicity, Ames/micronucleus/aberration tests
# assay_notes: CCRIS mutagenicity studies
# settings: Test System: AMES SALMONELLA TYPHIMURIUM; Strain/Indicator: TA100; Metabolic Activation: RAT, LIVER, S-9, AROCLOR 1254; Method: FLUCTUATION TEST
Activity calls are given as the source filed them. No rule for the calls is given here.
Thanks in advance; please answer with one of these: yes (active), no (inactive)

Observe how each entry below is paired with its result.
# molecule, category_label
measured = [
    ("OC(O)C(Cl)(Cl)Cl", "yes"),
    ("O=C(O)C(Br)(Br)Br", "yes"),
    ("N#CC(Cl)Cl", "yes"),
    ("N#CC(Cl)Br (stereo unspecified)", "no"),
    ("N#CCBr", "yes"),
]

### Prompt What was the test verdict on N#CC(Cl)(Cl)Cl ?
### Response no
